// hACMSD (ACMSD1) (Homo sapiens (Human), UniProt Q8TDX5) pIC50 records
// pIC50: -log10(molar conc.)

Input line: Entry N#Cc1c(-c2cccs2)nc(SCc2cccc(-c3noc(=O)[nH]3)c2)[nH]c1=O needs its pIC50 filled in; supply it.
Output line: 7.60

Input line: Give the measured pIC50 for N#Cc1c(-c2nccs2)nc(SCc2cccc(C(=O)O)c2)[nH]c1=O
Output line: 7.31

Input line: Check the records and state pIC50 for N#Cc1c(-c2cccs2)nc(SCc2cccc(-c3nn[nH]n3)c2)[nH]c1=O
Output line: 8.30

Input line: Please list pIC50 recorded for the molecule N#Cc1c(-c2cccs2)nc(SCc2cccc(CC(=O)O)c2)[nH]c1=O
Output line: 8.00

Input line: Give the reported value of pIC50 for this record: N#Cc1c(C2CCCCC2)nc(SCc2cccc(C(=O)O)c2)[nH]c1=O
Output line: 7.11

Input line: Read off the recorded pIC50 for N#Cc1c(-c2ccco2)nc(SCc2cccc(C(=O)O)c2)[nH]c1=O
Output line: 7.18

Input line: Give pIC50 for the following molecule: CCOC(=O)c1cccc(CSc2nc(-c3ccc(C)cc3)c(C#N)c(=O)[nH]2)c1
Output line: 6.02

The reported numbers originate from patent US11254644B2.
